test system: 293ACE2 cells
Value kind: CC50

293ACE2 cells data for CCOC(=O)[C@H]1O[C@@H]1C(=O)N[C@@H](CC(C)C)C(=O)NCCC(C)C [E-64d] ; its CC50: > 100 µM

====

assay: in vitro; settings: African green monkey
Recorded CC50 by entry

Example results:
>>> obs_value("CCN(CC)CCCC(C)Nc1ccnc2cc(Cl)ccc12 (centres unmarked) [Chloroquine, chloroquine]")
"> 100 µM"
>>> obs_value("CN(C)C(=O)COC(=O)Cc1ccc(OC(=O)c2ccc(NC(=N)N)cc2)cc1 [Camostat, camostat]")
"> 100 µM"
>>> obs_value("Cc1cc(-c2nc(CN3CCC(C(=O)NCCCN4C[C@H](C)C[C@H](C)C4)CC3)co2)ccc1F [Fluoxazolevir, fluoxazolevir]")
"> 100 µM"

Per the record, CCN1CCN(C(c2ccc(Cl)cc2)c2ccc(Cl)cc2)CC1 [Dichlorcyclizine, dichlorcyclizine] has CC50 of > 100 µM

# CC50 of CN1CCN([C@@H](c2ccccc2)c2ccc(Cl)cc2)CC1 [(S)-CCZ, (S)-chlorcyclizine] = 36.2 µM

====

test: in vitro; conditions: human
Value kind: CC50

Recorded CC50, per entry:
>>> obs_value("CCN(CC)CCCC(C)Nc1ccnc2cc(Cl)ccc12 (stereo not shown) [Chloroquine, chloroquine]")
"> 30 µM"
>>> obs_value("CN(C)C(=O)COC(=O)Cc1ccc(OC(=O)c2ccc(NC(=N)N)cc2)cc1 [Camostat, camostat]")
"> 100 µM"
>>> obs_value("Cc1cc(-c2nc(CN3CCC(C(=O)NCCCN4C[C@H](C)C[C@H](C)C4)CC3)co2)ccc1F [Fluoxazolevir, fluoxazolevir]")
"32.7 µM"

We now examine a further molecule.
Memo: CN1CCN([C@@H](c2ccccc2)c2ccc(Cl)cc2)CC1 [(S)-CCZ, (S)-chlorcyclizine] , reported CC50: > 30 µM

====

system: MA104 cells
Value kind: CC50

Value of CC50 reported for the molecule CCOC(=O)[C@H]1O[C@@H]1C(=O)N[C@@H](CC(C)C)C(=O)NCCC(C)C [E-64d] is > 100 µM

====

system: VSV-Gpp; format: cell-based, vesicular stomatitis virus
Value kind: inhibition of VSV-Gpp entry

>>> obs_value("CN1CCN([C@@H](c2ccccc2)c2ccc(Cl)cc2)CC1 [(S)-CCZ, (S)-chlorcyclizine]")
"no inhibition"
>>> obs_value("CCN1CCN(C(c2ccc(Cl)cc2)c2ccc(Cl)cc2)CC1")
"no inhibition"
